Target: catalase (CAT) (Aspergillus niger, UniProt P55303)
Construct: purchased Sigma C3515
Sequence (P55303 whole entry): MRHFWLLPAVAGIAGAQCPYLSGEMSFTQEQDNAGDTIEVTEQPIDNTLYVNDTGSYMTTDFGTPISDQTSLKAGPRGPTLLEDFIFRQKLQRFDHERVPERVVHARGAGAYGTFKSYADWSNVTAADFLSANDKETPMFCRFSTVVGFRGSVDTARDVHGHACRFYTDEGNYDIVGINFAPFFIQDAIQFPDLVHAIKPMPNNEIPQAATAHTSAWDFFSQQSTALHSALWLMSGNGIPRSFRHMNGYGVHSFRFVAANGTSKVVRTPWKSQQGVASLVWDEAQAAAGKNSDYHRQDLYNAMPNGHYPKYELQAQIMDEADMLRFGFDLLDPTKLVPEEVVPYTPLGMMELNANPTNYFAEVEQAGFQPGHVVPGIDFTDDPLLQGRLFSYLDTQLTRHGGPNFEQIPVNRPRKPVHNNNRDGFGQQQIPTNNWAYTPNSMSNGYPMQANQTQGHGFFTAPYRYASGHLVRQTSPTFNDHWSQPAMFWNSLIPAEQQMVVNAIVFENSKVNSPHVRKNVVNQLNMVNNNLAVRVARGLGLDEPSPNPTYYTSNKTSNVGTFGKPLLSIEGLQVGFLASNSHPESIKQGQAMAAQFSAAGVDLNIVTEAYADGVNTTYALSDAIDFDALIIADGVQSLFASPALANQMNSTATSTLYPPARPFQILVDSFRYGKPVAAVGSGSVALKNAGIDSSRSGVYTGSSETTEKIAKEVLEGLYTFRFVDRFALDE
Experiment: Effect on CAT activity
Assay type: biochemical
Conditions: samples 3 mM/dm^3 in DMSO, 0.01 mL; mean ± SEM, n = 3
Quick reference: CAT Inhibition (%) of the listed items.
EXPERIMENTAL_READOUT: CAT Inhibition (%)

INSERT INTO results (compound, result) VALUES
  ('O=C(/C=C/c1ccccc1)c1ccccc1', '12.5 ±2.4%'),
  ('COc1ccc(/C=C/C(=O)c2ccccc2)cc1O', '88.1 ± 4.0%'),
  ('COc1ccc(C=CC(=O)c2ccccc2)cc1OC(=O)C(C)c1ccc(CC(C)C)cc1 (stereo not shown)', '41.9 ± 1.2%'),
  ('COc1cc(/C=C/C(=O)c2ccccc2)ccc1O', '78.6 ± 2.8%');

###

Biological target: UniProt:P06276
Sequence (P06276 29-602, species assumed): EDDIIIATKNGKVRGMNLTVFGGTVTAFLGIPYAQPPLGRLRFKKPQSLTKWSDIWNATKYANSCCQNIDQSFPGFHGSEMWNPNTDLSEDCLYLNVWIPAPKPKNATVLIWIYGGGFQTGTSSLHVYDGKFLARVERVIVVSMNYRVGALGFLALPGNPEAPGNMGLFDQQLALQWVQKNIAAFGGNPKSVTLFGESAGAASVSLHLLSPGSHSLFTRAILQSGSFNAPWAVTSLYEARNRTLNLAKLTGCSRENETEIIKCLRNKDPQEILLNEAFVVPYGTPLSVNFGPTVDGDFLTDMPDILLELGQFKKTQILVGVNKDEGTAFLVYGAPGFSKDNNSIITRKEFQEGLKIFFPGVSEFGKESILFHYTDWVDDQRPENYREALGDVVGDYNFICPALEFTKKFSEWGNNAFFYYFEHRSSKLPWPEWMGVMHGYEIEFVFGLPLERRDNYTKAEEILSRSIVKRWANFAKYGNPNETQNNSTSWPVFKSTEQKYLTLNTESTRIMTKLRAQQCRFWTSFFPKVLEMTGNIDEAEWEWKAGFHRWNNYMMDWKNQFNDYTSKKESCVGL
Type: biochemical
Conditions: samples 3 mM/dm^3 in DMSO, 0.035 mL; mean ± SEM, n = 3
Classify as follows. Reported BChE % (inhibition) greater than or equal to 90%: met. Reported BChE % (inhibition) below: not met.

INSERT INTO results (compound, target_entity, class) VALUES
  ('COc1ccc(C=CC(=O)c2ccccc2)cc1OC(=O)C(C)c1ccc(CC(C)C)cc1 (centres unmarked)', 'UniProt:P06276', 'not met'),
  ('COc1cc(/C=C/C(=O)c2ccccc2)ccc1O', 'UniProt:P06276', 'not met'),
  ('O=C(/C=C/c1ccccc1)c1ccccc1', 'UniProt:P06276', 'not met'),
  ('COc1ccc(/C=C/C(=O)c2ccccc2)cc1O', 'UniProt:P06276', 'met');

###

Target: catalase (CAT) (Aspergillus niger, UniProt P55303)
Construct: purchased Sigma C3515
Assay: Effect on CAT activity
Format: biochemical
Conditions: samples 3 mM/dm^3 in DMSO, 0.01 mL; mean ± SEM, n = 3
EXPERIMENTAL_READOUT: CAT Inhibition of the H2O2 Depletion

INSERT INTO measurements (molecule, experimental_readout, result) VALUES
  ('COc1ccc(C=CC(=O)c2ccccc2)cc1OC(=O)C(C)c1ccc(CC(C)C)cc1 (stereo not shown) [Compound 6]', 'CAT Inhibition of the H2O2 Depletion', '0.15 ± 0.01 mm/dm^3/min'),
  ('COc1cc(/C=C/C(=O)c2ccccc2)ccc1O [Compound 1]', 'CAT Inhibition of the H2O2 Depletion', '0.26 ± 0.01 mm/dm^3/min'),
  ('COc1ccc(/C=C/C(=O)c2ccccc2)cc1O [Compound 7]', 'CAT Inhibition of the H2O2 Depletion', '0.22 ± 0.01 mm/dm^3/min'),
  ('O=C(/C=C/c1ccccc1)c1ccccc1 [Compound 5]', 'CAT Inhibition of the H2O2 Depletion', '0.03 ± 0.01 mm/dm^3/min');

###

Molecular target: AChE (Homo sapiens)
Sequence (P22303 32-614): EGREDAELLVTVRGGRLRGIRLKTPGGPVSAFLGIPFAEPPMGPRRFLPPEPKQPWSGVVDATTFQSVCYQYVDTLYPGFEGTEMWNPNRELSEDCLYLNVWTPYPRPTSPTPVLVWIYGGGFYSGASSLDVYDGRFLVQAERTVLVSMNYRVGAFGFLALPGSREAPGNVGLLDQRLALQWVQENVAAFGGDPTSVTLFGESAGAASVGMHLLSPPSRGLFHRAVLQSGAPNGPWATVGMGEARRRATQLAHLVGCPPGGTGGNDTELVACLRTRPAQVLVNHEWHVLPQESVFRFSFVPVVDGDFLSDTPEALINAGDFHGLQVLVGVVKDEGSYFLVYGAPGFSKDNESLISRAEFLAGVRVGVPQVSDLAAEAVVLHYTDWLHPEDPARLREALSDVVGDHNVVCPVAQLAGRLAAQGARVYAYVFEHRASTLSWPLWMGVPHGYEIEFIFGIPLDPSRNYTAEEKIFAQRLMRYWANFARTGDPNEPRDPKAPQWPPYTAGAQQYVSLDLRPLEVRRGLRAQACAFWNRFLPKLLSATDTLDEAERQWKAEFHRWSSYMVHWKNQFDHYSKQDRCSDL
Assay: Effect on AChE activity (modified Ellman's method)
Format: biochemical
Settings: samples 3 mM/dm^3 in DMSO, 0.035 mL; mean ± SEM, n = 3
EXPERIMENTAL_READOUT: AChE, Equivalent Concentration of Reference Compound Magniflorine (µg/mL)

INSERT INTO assay_data (compound, numeric_readout) VALUES
  ('COc1ccc(C=CC(=O)c2ccccc2)cc1OC(=O)C(C)c1ccc(CC(C)C)cc1 (centres unmarked)', 0.28),
  ('COc1cc(/C=C/C(=O)c2ccccc2)ccc1O', 0.31),
  ('COc1cc(C=CC(=O)c2ccccc2)ccc1OC(=O)C(C)c1ccc(CC(C)C)cc1 (centres unmarked)', 0.34),
  ('O=C(/C=C/c1ccccc1)c1ccccc1', 0.25),
  ('COc1ccc(/C=C/C(=O)c2ccccc2)cc1O', 0.34);
